Listing of recorded IC50 by entry.
- tested system: recombinant SARS-CoV-2 main protease (Mpro) (Severe acute respiratory syndrome coronavirus 2)
- Construct: the main protease (Mpro; also called 3CLpro) which has an essential role in processing the polyproteins
- assay info: biochemical
- test settings: FRET assay, Mpro 50 nM, substrate 10 μM

molecule	IC50
O=C1CCC(N2C(=O)c3cccc(OCCCCCCCCC(=O)Nc4cccn([C@@H](CC5CC5)C(=O)N[C@@H](C[C@@H]5CCNC5=O)C(=O)C(=O)NCc5ccccc5)c4=O)c3C2=O)C(=O)N1 (stereo partly drawn)	< 100 nM
O=C(COc1ccc(C2CCC(=O)NC2=O)cc1)NCCNC(=O)[C@H](NC(=O)[C@@H](c1cccnc1)N(C(=O)c1ccco1)c1ccc(-c2ccccc2)cc1)c1ccccc1 (single isomer, unassigned)	< 100 nM
O=C1CCC(N2C(=O)c3cccc(NCCOCCOCCOCCNC(=O)[C@H](NC(=O)[C@@H](c4cccnc4)N(C(=O)c4ccco4)c4ccc(-c5ccccc5)cc4)c4ccccc4)c3C2=O)C(=O)N1 (mixture of isomers)	< 100 nM

----------
- Test system: SARS-CoV-2 (SARS-CoV2/ZG/297-20) in Vero E6 cells
- assay info: microbe, parasite or virus in culture
- Format: cell-based
- test settings: Severe acute respiratory syndrome coronavirus 2, Vero C1008, 72 h, read-out: Antiviral Activity 50 uM
reported metric: inhibition at 50 µM

molecule	tested system	experimental value
O=C1CCC(N2C(=O)c3cccc(NCCOCCOCCOCCNC(=O)[C@H](NC(=O)[C@@H](c4cccnc4)N(C(=O)c4ccco4)c4ccc(-c5ccccc5)cc4)c4ccccc4)c3C2=O)C(=O)N1 (mixture of isomers)	SARS-CoV-2 (SARS-CoV2/ZG/297-20) in Vero E6 cells	< 0%
O=C(COc1ccc(C2CCC(=O)NC2=O)cc1)NCCNC(=O)[C@H](NC(=O)[C@@H](c1cccnc1)N(C(=O)c1ccco1)c1ccc(-c2ccccc2)cc1)c1ccccc1 (single isomer, unassigned)	SARS-CoV-2 (SARS-CoV2/ZG/297-20) in Vero E6 cells	< 0%
O=C1CCC(N2C(=O)c3cccc(OCCCCNC(=O)c4ccc5c(N6C(=O)NC7(CC(c8ccccc8Cl)C7)C6=O)cncc5c4)c3C2=O)C(=O)N1 (centres unmarked) [Compound C10778U]	SARS-CoV-2 (SARS-CoV2/ZG/297-20) in Vero E6 cells	< 25%
O=C1CCC(N2C(=O)c3cccc(NCCNC(=O)[C@@H](NC(=O)[C@@H](c4cccnc4)N(C(=O)c4ccco4)c4ccc5c(c4)oc4ccccc45)c4ccccc4)c3C2=O)C(=O)N1 (mixture of isomers)	SARS-CoV-2 (SARS-CoV2/ZG/297-20) in Vero E6 cells	< 25%
O=C1CCC(N2C(=O)c3cccc(NCCCCCNC(=O)C(NC(=O)[C@@H](c4cccnc4)N(C(=O)c4ccco4)c4ccc5c(c4)oc4ccccc45)c4ccccc4)c3C2=O)C(=O)N1 (mixture of isomers)	SARS-CoV-2 (SARS-CoV2/ZG/297-20) in Vero E6 cells	< 0%

----------
- Test system: SARS-CoV-2 (SARS-CoV2/ZG/297-20) in Vero E6 cells
- assay info: microbe, parasite or virus in culture
- Assay type: cell-based
- test settings: Severe acute respiratory syndrome coronavirus 2, Vero C1008, 72 h, read-out: Antiviral Activity 50 uM

compound	inhibition at 50 µM
O=C1CCC(N2C(=O)c3ccc(NCCOCCNC(=O)[C@H](NC(=O)[C@@H](c4cccnc4)N(C(=O)c4ccco4)c4ccc(-c5ccccc5)cc4)c4ccccc4)cc3C2=O)C(=O)N1 (single isomer, unassigned) [TS462]	< 25%
O=C1CCC(N2C(=O)c3cccc(OCCOCCOCCOCCNC(=O)c4ccc5cncc(N6C(=O)NC7(CC(c8ccccc8Cl)C7)C6=O)c5c4)c3C2=O)C(=O)N1 (stereo not shown) [Compound C10778S]	> 75%
O=C1CCC(N2C(=O)c3ccc(NCCOCCOCCNC(=O)[C@H](NC(=O)[C@@H](c4cccnc4)N(C(=O)c4ccco4)c4ccc(-c5ccccc5)cc4)c4ccccc4)cc3C2=O)C(=O)N1 (single isomer, unassigned) [TS464]	< 25%
O=C1CCC(N2C(=O)c3cccc(NCCOCCNC(=O)[C@@H](NC(=O)[C@@H](c4cccnc4)N(C(=O)c4ccco4)c4ccc(-c5ccccc5)cc4)c4ccccc4)c3C2=O)C(=O)N1 (single isomer, unassigned) [TS453F1b]	< 0%
O=C1CCC(N2C(=O)c3cccc(NCCOCCOCCOCCNC(=O)C(NC(=O)[C@@H](c4cccnc4)N(C(=O)c4ccco4)c4ccc5c(c4)oc4ccccc45)c4ccccc4)c3C2=O)C(=O)N1 (mixture of isomers) [TS297F1]	< 0%
O=C1CCC(N2C(=O)c3cccc(NCCCCNC(=O)[C@@H](NC(=O)C(c4cccnc4)N(C(=O)c4ccco4)c4ccc5c(c4)oc4ccccc45)c4ccccc4)c3C2=O)C(=O)N1 (mixture of isomers) [TS313F1]	< 0%
O=C1CCC(N2C(=O)c3cccc(OCCOCCOCCOCCNC(=O)c4ccc5c(N6C(=O)NC7(CC(c8ccccc8Cl)C7)C6=O)cncc5c4)c3C2=O)C(=O)N1 (stereo not shown) [Compound C10778Y]	< 50%
O=C1CCC(N2C(=O)c3cccc(OCCCCCCCCNC(=O)c4ccc5cncc(N6C(=O)NC7(CC(c8ccccc8Cl)C7)C6=O)c5c4)c3C2=O)C(=O)N1 (stereo not shown) [Compound C10778N]	> 75%
O=C1CCC(N2C(=O)c3ccc(N4CCN(CC5CCN(C(=O)[C@H](NC(=O)[C@@H](c6cccnc6)N(C(=O)c6ccco6)c6ccc(-c7ccccc7)cc6)c6ccccc6)CC5)CC4)cc3C2=O)C(=O)N1 (single isomer, unassigned) [TS470]	< 50%
O=C1CCC(N2C(=O)c3cccc(NCCCCNC(=O)[C@H](NC(=O)[C@@H](c4cccnc4)N(C(=O)c4ccco4)c4ccc(-c5ccccc5)cc4)c4ccccc4)c3C2=O)C(=O)N1 (mixture of isomers) [TS451F1]	< 0%

meta.source: patent US20260137677A1
